All values here come from patent US20240150298A1.

test system: P. aeruginosa LpxC (Pseudomonas aeruginosa, UniProt P47205)
Sequence (P47205 whole entry): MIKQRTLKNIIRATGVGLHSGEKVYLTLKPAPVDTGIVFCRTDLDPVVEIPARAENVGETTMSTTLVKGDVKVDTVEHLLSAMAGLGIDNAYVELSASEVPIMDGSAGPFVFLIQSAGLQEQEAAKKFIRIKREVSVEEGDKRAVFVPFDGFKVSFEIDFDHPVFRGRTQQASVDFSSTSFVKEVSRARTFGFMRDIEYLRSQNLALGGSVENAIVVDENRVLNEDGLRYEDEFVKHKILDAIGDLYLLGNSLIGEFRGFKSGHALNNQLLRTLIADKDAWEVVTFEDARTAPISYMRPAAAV
test description: LpxC Binding Assay (Rapid Fire MS assay)
Criterion: IC50 strictly under 40 nM. Met: yes (1). Not met: no (0).

• C[C@H](O)c1nccn1[C@@H](/C=C/c1ccc(-c2ccc(O[C@H]3COC[C@@H]3N)cc2)cc1)CO (racemic) [Compound 34] = yes (1)
• C[C@H](O)c1nccn1C/C=C/c1ccc(-c2ccc(OC3CCN(CCO)CC3)cc2)cc1 [Compound 1] = no (0)
• COC(CN)COc1ccc(-c2ccc(/C=C/[C@@H](CO)n3ccnc3[C@H](C)O)cc2)cc1 (mixture of isomers) [Compound 27] = no (0)
• CCOCC(O)COc1ccc(-c2ccc(/C=C/[C@@H](CO)n3ccnc3[C@H](C)O)cc2)cc1 (mixture of isomers) [Compound 36] = yes (1)
• C[C@H](O)c1nccn1[C@@H](/C=C/c1ccc(-c2ccc(OCCN(CCO)CCO)cc2)cc1)CO [Compound 28] = yes (1)
• C[C@H](O)c1nccn1[C@@H](/C=C/c1ccc(-c2ccc(O[C@H]3C[C@@H]3N)cc2)cc1)CO (single isomer, unassigned) [Compound 14] = yes (1)

* * *

test system: P. aeruginosa LpxC (Pseudomonas aeruginosa)
test description: LpxC Binding Assay (Rapid Fire MS assay)
pIC50: −log10 of the molar value.
We begin with a simple list: items and their reported pIC50.
property: pIC50

* C[C@H](O)c1nccn1[C@@H](/C=C/c1ccc(-c2ccc(OCC(CO)CO)cc2)cc1)CO | 7.92
* C[C@H](O)c1nccn1C/C=C/c1ccc(-c2ccc(OC3CCN(CC(O)CO)CC3)cc2)cc1 (stereo partly shown) | 7.81
* C[C@H](O)c1nccn1[C@@H](/C=C/c1ccc(-c2ccc(C3CC(N4CC(O)C4)C3)cc2)cc1)CO (stereo partly shown) | 7.56
* C[C@H](O)c1nccn1[C@@H](/C=C/c1ccc(-c2ccc(OC3CCN(CCO)CC3)cc2)cc1)CO | 7.18
* C[C@H](O)c1nccn1[C@@H](/C=C/c1ccc(-c2ccc(O[C@H]3COC[C@@H]3O)cc2)cc1)CO (racemic) | 8.09
* C[C@H](O)c1nccn1C/C=C/c1ccc(-c2ccc(O[C@@H]3C[C@H]3N)cc2)cc1 (racemic) | 7.63
* C[C@H](O)c1nccn1[C@@H](/C=C/c1ccc(-c2ccc(OC[C@H](O)CN)cc2)cc1)CO | 6.92

* * *

test system: E. coli LpxC (Escherichia coli, UniProt P0A725)
Sequence (P0A725 whole entry): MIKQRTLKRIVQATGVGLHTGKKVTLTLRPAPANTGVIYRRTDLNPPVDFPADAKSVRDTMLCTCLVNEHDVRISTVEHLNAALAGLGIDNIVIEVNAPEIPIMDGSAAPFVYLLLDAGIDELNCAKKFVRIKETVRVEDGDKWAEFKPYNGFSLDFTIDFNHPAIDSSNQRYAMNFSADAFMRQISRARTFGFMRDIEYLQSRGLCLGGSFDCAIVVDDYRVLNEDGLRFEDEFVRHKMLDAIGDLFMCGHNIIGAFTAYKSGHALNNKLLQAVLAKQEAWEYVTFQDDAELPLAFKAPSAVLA
pIC50: −log10 of the molar value.
Label scheme for pIC50: lower than 8 is Criterion not met, 8 and above is Criterion met.

* C[C@H](O)c1nccn1[C@@H](/C=C/c1ccc(-c2ccc(OC3CCN(CCO)CC3)cc2)cc1)CCO | Criterion met
* C[C@H](O)c1nccn1[C@@H](/C=C/c1ccc(-c2ccc(O[C@H]3COC[C@@H]3N)cc2)cc1)CO (racemic) | Criterion met
* C[C@H](O)c1nccn1[C@@H](/C=C/c1ccc(-c2ccc(OC[C@@H](O)CN(C)C)cc2)cc1)CO | Criterion met
* C[C@H](O)c1nccn1[C@@H](/C=C/c1ccc(-c2ccc(OC3CCN(CCO)CC3)cc2)cc1)CO | Criterion met
* CCOCC(O)COc1ccc(-c2ccc(/C=C/[C@@H](CO)n3ccnc3[C@H](C)O)cc2)cc1 (mixture of isomers) | Criterion met
* C[C@H](O)c1nccn1[C@@H](/C=C/c1ccc(-c2ccc(OCC(CO)N(C)C)cc2)cc1)CO (mixture of isomers) | Criterion not met
* C[C@H](O)c1nccn1[C@@H](/C=C/c1ccc(-c2ccc(C3CC(O)C3)cc2)cc1)CO (stereo partly drawn) | Criterion met
* C[C@H](O)c1nccn1[C@@H](/C=C/c1ccc(-c2ccc(O[C@H]3COC[C@@H]3O)cc2)cc1)CO (racemic) | Criterion met
* C[C@H](O)c1nccn1[C@@H](/C=C/c1ccc(-c2ccc(OCC(N)CO)cc2)cc1)CO (mixture of isomers) | Criterion not met
* C[C@H](O)c1nccn1[C@@H](/C=C/c1ccc(-c2ccc(OCC(N)CO)cc2)cc1)CCO (mixture of isomers) | Criterion met
* C[C@H](O)c1nccn1[C@@H](/C=C/c1ccc(-c2ccc(OCC(CO)CO)cc2)cc1)CO | Criterion met
* C[C@H](O)c1nccn1[C@@H](/C=C/c1ccc(-c2ccc(OC[C@@H](O)CO)cc2F)cc1)CO | Criterion met
* C[C@H](O)c1nccn1[C@@H](/C=C/c1ccc(-c2ccc(OC[C@@H](O)CO)cc2)cc1)CO | Criterion met
* C[C@H](O)c1nccn1[C@@H](/C=C/c1ccc(-c2ccc(C3CC(NCCC#N)C3)cc2)cc1)CO (stereo partly drawn) | Criterion met
* C[C@H](O)c1nccn1C/C=C/c1ccc(-c2ccc(OC3CCN(CCO)CC3)cc2)cc1 | Criterion not met
* C[C@H](O)c1nccn1[C@@H](/C=C/c1ccc(-c2ccc(OCCN(CCO)CCO)cc2)cc1)CO | Criterion met
* C[C@H](O)c1nccn1[C@@H](/C=C(\F)c1ccc(-c2ccc(OCC(O)CN)cc2)cc1)CO (single isomer, unassigned) | Criterion met
* C[C@H](O)c1nccn1[C@@H](/C=C/c1ccc(-c2ccc(C3CC(N4CC(O)C4)C3)cc2)cc1)CO (stereo partly drawn) | Criterion met
* COC(CN)COc1ccc(-c2ccc(/C=C/[C@@H](CO)n3ccnc3[C@H](C)O)cc2)cc1 (mixture of isomers) | Criterion met

* * *

test system: K. pneumoniae LpxC (Klebsiella pneumoniae subsp. pneumoniae)
Sequence (A6T4N9 whole entry): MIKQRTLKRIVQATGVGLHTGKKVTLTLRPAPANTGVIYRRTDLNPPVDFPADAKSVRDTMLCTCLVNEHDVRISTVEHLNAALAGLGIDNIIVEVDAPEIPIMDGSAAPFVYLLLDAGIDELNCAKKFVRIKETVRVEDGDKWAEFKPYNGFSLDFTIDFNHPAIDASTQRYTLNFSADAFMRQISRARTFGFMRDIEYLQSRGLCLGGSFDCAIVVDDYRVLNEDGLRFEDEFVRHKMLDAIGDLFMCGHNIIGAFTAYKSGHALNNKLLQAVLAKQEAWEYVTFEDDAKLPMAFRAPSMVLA
pIC50: −log10 of the molar value.
property: pIC50

- C[C@H](O)c1nccn1[C@@H](/C=C/c1ccc(-c2ccc(OC[C@H](O)CN)cc2)cc1)CO: 8.04
- C[C@H](O)c1nccn1[C@@H](/C=C/c1ccc(-c2ccc(OC[C@@H](O)CN(C)C)cc2)cc1)CO: 8.85
- C[C@H](O)c1nccn1[C@@H](/C=C/c1ccc(-c2ccc(OCC(CO)CO)cc2)cc1)CO: 8.80

* * *

Test system: K. pneumoniae ATCC13883
test description: Bacterial susceptibility testing, MIC by broth microdilution (CLSI)
Assay type: cell-based
condition: Klebsiella pneumoniae, ATCC13883, broth microdilution, 35° C., 18-24 h; read-out: MIC K. pneumoniae ATCC13883
We begin with a simple list: items and their reported log10 MIC.
property: log10 MIC (log10 of the value in µg/mL)

* C[C@H](O)c1nccn1[C@@H](/C=C/c1ccc(-c2ccc(C3CC(C(=O)NCc4ncon4)C3)cc2)cc1)CO (some centres unmarked) | 0.00
* C[C@H](O)c1nccn1[C@@H](/C=C/c1ccc(-c2ccc(C3CC(N)C3)cc2)cc1)CO (some centres unmarked) | 1.20
* C[C@H](O)c1nccn1C/C=C/c1ccc(-c2ccc(OCC3(N)CC3)cc2)cc1 | -0.60
* C[C@H](O)c1nccn1[C@@H](/C=C/c1ccc(-c2ccc(O[C@@H]3CCC[C@H]3O)cc2)cc1)CO | 0.00
* C[C@H](O)c1nccn1[C@@H](/C=C/c1ccc(-c2ccc(OC[C@H](O)CO)cc2)cc1)CO | 1.20
* C[C@H](O)c1nccn1[C@@H](/C=C/c1ccc(-c2ccc(C3CC(C(=O)NCC#N)C3)cc2)cc1)CO (some centres unmarked) | 0.00
* C[C@H](O)c1nccn1[C@@H](/C=C/c1ccc(-c2ccc(OC[C@@H](N)CO)cc2)cc1)CO (single isomer, unassigned) | 1.20
* C[C@H](O)c1nccn1[C@@H](/C=C/c1ccc(-c2ccc(OCC(O)CN(C)C)cc2)cc1)CO (mixture of isomers) | 1.81
* C[C@H](O)c1nccn1[C@@H](/C=C/c1ccc(-c2ccc(C3CC(NCCC#N)C3)cc2)cc1)CO (some centres unmarked) | -0.30
* C[C@H](O)c1nccn1[C@@H](/C=C/c1ccc(-c2ccc(C3CC(O)C3)cc2)cc1)CO (some centres unmarked) | -0.30
* C[C@H](O)c1nccn1[C@@H](/C=C/c1ccc(-c2ccc(C3CC(C(=O)NCc4c[nH]cn4)C3)cc2)cc1)CO (some centres unmarked) | 0.30
* C[C@H](O)c1nccn1[C@@H](/C=C(\F)c1ccc(-c2ccc(OCC(O)CN)cc2)cc1)CO (single isomer, unassigned) | 1.51
* C[C@H](O)c1nccn1[C@@H](/C=C/c1ccc(-c2ccc(OCC3(CO)COC3)cc2)cc1)CO | 0.30
* C[C@H](O)c1nccn1[C@@H](/C=C/c1ccc(-c2ccc([C@@H]3C[C@H]3OCCO)cc2)cc1)CO | -0.30

* * *

We begin with a simple list: items and their reported MIC.
System: P. aeruginosa 209 PAO1
test description: Bacterial susceptibility testing, MIC by broth microdilution (CLSI)
Type: cell-based
condition: Pseudomonas aeruginosa, PAO1, read-out: MIC P. aeruginosa 209 PAO1
property: MIC (µg/mL)

• C[C@H](O)c1nccn1[C@@H](/C=C/c1ccc(-c2ccc([C@H]3C[C@H](NC(=O)CS(C)(=O)=O)C3)cc2)cc1)CO = 2
• C[C@H](O)c1nccn1[C@@H](/C=C/c1ccc(-c2ccc([C@H]3C[C@H](NS(C)(=O)=O)C3)cc2)cc1)CO = 1
• C[C@H](O)c1nccn1[C@@H](/C=C/c1ccc(-c2ccc([C@H]3C[C@H](NC(=O)CO)C3)cc2)cc1)CO = 1
• C[C@H](O)c1nccn1[C@@H](/C=C/c1ccc(-c2ccc([C@H]3C[C@H](NC(=O)CC#N)C3)cc2)cc1)CO = 2
• C[C@H](O)c1nccn1[C@@H](/C=C/c1ccc(-c2ccc([C@H]3C[C@H](NC(=O)CN(C)C)C3)cc2)cc1)CO = 4
